Here the recorded Kb is given for each entry.
- Test System: D189A hMC4R (Homo sapiens, UniProt P32245, D189A)
- Sequence (P32245 whole entry D189A): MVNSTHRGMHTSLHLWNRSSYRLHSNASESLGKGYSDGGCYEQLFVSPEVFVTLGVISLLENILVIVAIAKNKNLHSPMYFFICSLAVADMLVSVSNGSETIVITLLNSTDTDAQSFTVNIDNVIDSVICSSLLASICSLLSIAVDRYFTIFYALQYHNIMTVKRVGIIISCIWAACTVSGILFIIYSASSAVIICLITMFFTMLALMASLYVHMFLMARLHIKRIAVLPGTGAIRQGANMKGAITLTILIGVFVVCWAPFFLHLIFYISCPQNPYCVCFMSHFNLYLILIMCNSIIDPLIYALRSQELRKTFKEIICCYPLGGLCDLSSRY
- Protocol Text: cAMP AlphaScreen antagonist assay
- Format: cell-based

The examples below pair each entry with its known result.
Compound: C[C@@H]1NC(=O)[C@H](CCC(=O)O)NC(=O)[C@H](Cc2ccccc2)NC(=O)[C@H](Cc2ccccc2)NC(=O)[C@H](CCCNC(=N)N)NC(=O)[C@@H]2CCCN2C(=O)[C@H]2CCCN2C(=O)[C@H](Cc2ccccc2)NC1=O [MDE3–119-5c, c[Pro-Arg-Phe-Phe-Glu-Ala-Phe-DPro]]
Test System: D189A hMC4R (Homo sapiens, UniProt P32245, D189A)
Parameter Measured: Kb
Result Value: > 3160 nM
//
Compound: C[C@@H]1NC(=O)[C@H](C)NC(=O)[C@H](Cc2ccccc2)NC(=O)[C@H](Cc2ccccc2)NC(=O)[C@H](CCCNC(=N)N)NC(=O)[C@@H]2CCCN2C(=O)[C@H]2CCCN2C(=O)[C@H](Cc2ccccc2)NC1=O [MDE3–154c, c[Pro-Arg-Phe-Phe-Ala-Ala-Phe-DPro]]
Test System: D189A hMC4R (Homo sapiens, UniProt P32245, D189A)
Parameter Measured: Kb
Result Value: 2510 nM
//
Compound: C[C@@H]1NC(=O)[C@H](CO)NC(=O)[C@H](Cc2ccccc2)NC(=O)[C@H](Cc2ccccc2)NC(=O)[C@H](CCCNC(=N)N)NC(=O)[C@@H]2CCCN2C(=O)[C@H]2CCCN2C(=O)[C@H](Cc2ccccc2)NC1=O [MDE3–85c, c[Pro-Arg-Phe-Phe-Ser-Ala-Phe-DPro]]
Test System: D189A hMC4R (Homo sapiens, UniProt P32245, D189A)
Parameter Measured: Kb
Result Value: 1000 nM

// next item, Kb requested
So, C[C@@H]1NC(=O)[C@H](CC(=O)O)NC(=O)[C@H](Cc2ccccc2)NC(=O)[C@H](Cc2ccccc2)NC(=O)[C@H](CCCNC(=N)N)NC(=O)[C@@H]2CCCN2C(=O)[C@H]2CCCN2C(=O)[C@H](Cc2ccccc2)NC1=O [MDE3–119-4c, c[Pro-Arg-Phe-Phe-Asp-Ala-Phe-DPro]] ? Its Kb was > 3160 nM

---

- Test System: D189E hMC4R (Homo sapiens, UniProt P32245, D189E)
- Sequence (P32245 whole entry D189E): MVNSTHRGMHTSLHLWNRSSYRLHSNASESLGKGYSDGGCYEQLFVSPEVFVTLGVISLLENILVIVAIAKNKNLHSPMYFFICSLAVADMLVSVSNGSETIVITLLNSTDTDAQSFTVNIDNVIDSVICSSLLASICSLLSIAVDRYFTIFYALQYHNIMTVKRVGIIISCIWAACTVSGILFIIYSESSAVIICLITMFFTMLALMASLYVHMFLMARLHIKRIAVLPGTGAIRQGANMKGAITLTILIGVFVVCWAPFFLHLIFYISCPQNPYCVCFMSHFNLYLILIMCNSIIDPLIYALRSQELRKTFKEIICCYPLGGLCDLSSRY
- Protocol Text: cAMP AlphaScreen agonist / inverse agonist assay
- Format: cell-based
- Particulars: D189E hMC4R
Here the recorded Inverse agonist percent decrease from basal activity is given for each entry.
Report the figure in % without appending any unit label.

The examples below pair each entry with its known result.
Molecule: C[C@@H]1NC(=O)[C@H](CN)NC(=O)[C@H](Cc2ccccc2)NC(=O)[C@H](Cc2ccccc2)NC(=O)[C@H](CCCNC(=N)N)NC(=O)[C@@H]2CCCN2C(=O)[C@H]2CCCN2C(=O)[C@H](Cc2ccccc2)NC1=O [MDE3–119-8c, c[Pro-Arg-Phe-Phe-Dap-Ala-Phe-DPro]]
Test System: D189E hMC4R (Homo sapiens, UniProt P32245, D189E)
Result Value: −55

Molecule: C[C@@H]1NC(=O)[C@H](CCC(=O)O)NC(=O)[C@H](Cc2ccccc2)NC(=O)[C@H](Cc2ccccc2)NC(=O)[C@H](CCCNC(=N)N)NC(=O)[C@@H]2CCCN2C(=O)[C@H]2CCCN2C(=O)[C@H](Cc2ccccc2)NC1=O [MDE3–119-5c, c[Pro-Arg-Phe-Phe-Glu-Ala-Phe-DPro]]
Test System: D189E hMC4R (Homo sapiens, UniProt P32245, D189E)
Result Value: −40

// next item, Inverse agonist percent decrease from basal activity requested
So, C[C@@H]1NC(=O)[C@H](CC(=O)O)NC(=O)[C@H](Cc2ccccc2)NC(=O)[C@H](Cc2ccccc2)NC(=O)[C@H](CCCNC(=N)N)NC(=O)[C@@H]2CCCN2C(=O)[C@H]2CCCN2C(=O)[C@H](Cc2ccccc2)NC1=O [MDE3–119-4c, c[Pro-Arg-Phe-Phe-Asp-Ala-Phe-DPro]] ? Its Inverse agonist percent decrease from basal activity was −40

---

Here the recorded Inverse agonist percent decrease from basal activity is given for each entry.
- Test System: D189S hMC4R (Homo sapiens, UniProt P32245, D189S)
- Sequence (P32245 whole entry D189S): as the sequence (P32245 whole entry D189A) above, with A189S counted along it
- Protocol Text: cAMP AlphaScreen agonist / inverse agonist assay
- Type: cell-based
- Particulars: D189S hMC4R
Report the figure in % without appending any unit label.

The examples below pair each entry with its known result.
Compound: C[C@@H]1NC(=O)[C@H](CC(N)=O)NC(=O)[C@H](Cc2ccccc2)NC(=O)[C@H](Cc2ccccc2)NC(=O)[C@H](CCCNC(=N)N)NC(=O)[C@@H]2CCCN2C(=O)[C@H]2CCCN2C(=O)[C@H](Cc2ccccc2)NC1=O [MDE5–108-10c, c[Pro-Arg-Phe-Phe-Asn-Ala-Phe-DPro]]
Test System: D189S hMC4R (Homo sapiens, UniProt P32245, D189S)
Result Value: −20
//
Compound: C[C@@H]1NC(=O)[C@H](CO)NC(=O)[C@H](Cc2ccccc2)NC(=O)[C@H](Cc2ccccc2)NC(=O)[C@H](CCCNC(=N)N)NC(=O)[C@@H]2CCCN2C(=O)[C@H]2CCCN2C(=O)[C@H](Cc2ccccc2)NC1=O [MDE3–85c, c[Pro-Arg-Phe-Phe-Ser-Ala-Phe-DPro]]
Test System: D189S hMC4R (Homo sapiens, UniProt P32245, D189S)
Result Value: −25

So, C[C@@H]1NC(=O)[C@H](CN)NC(=O)[C@H](Cc2ccccc2)NC(=O)[C@H](Cc2ccccc2)NC(=O)[C@H](CCCNC(=N)N)NC(=O)[C@@H]2CCCN2C(=O)[C@H]2CCCN2C(=O)[C@H](Cc2ccccc2)NC1=O [MDE3–119-8c, c[Pro-Arg-Phe-Phe-Dap-Ala-Phe-DPro]] ? Its Inverse agonist percent decrease from basal activity was −35

---

- Test System: D189E hMC4R (Homo sapiens, UniProt P32245, D189E)
- Protocol Text: cAMP AlphaScreen agonist / inverse agonist assay
- Assay type: cell-based
- Particulars: D189E hMC4R
Parameter Measured: Inverse agonist percent decrease from basal activity (%)
Report the figure in % without appending any unit label.

The examples below pair each entry with its known result.
Molecule: C[C@@H]1NC(=O)[C@@H](CN)NC(=O)[C@H](Cc2ccccc2)NC(=O)[C@H](Cc2ccccc2)NC(=O)[C@H](CCCNC(=N)N)NC(=O)[C@@H]2CCCN2C(=O)[C@H]2CCCN2C(=O)[C@H](Cc2ccccc2)NC1=O [MDE3–119-7c, c[Pro-Arg-Phe-Phe-DDap-Ala-Phe-DPro]]
Result Value: −35
//
Molecule: C[C@@H]1NC(=O)[C@H](C)NC(=O)[C@H](Cc2ccccc2)NC(=O)[C@H](Cc2ccccc2)NC(=O)[C@H](CCCNC(=N)N)NC(=O)[C@@H]2CCCN2C(=O)[C@H]2CCCN2C(=O)[C@H](Cc2ccccc2)NC1=O [MDE3–154c, c[Pro-Arg-Phe-Phe-Ala-Ala-Phe-DPro]]
Result Value: −25

So, C[C@@H]1NC(=O)[C@H](CO)NC(=O)[C@H](Cc2ccccc2)NC(=O)[C@H](Cc2ccccc2)NC(=O)[C@H](CCCNC(=N)N)NC(=O)[C@@H]2CCCN2C(=O)[C@H]2CCCN2C(=O)[C@H](Cc2ccccc2)NC1=O [MDE3–85c, c[Pro-Arg-Phe-Phe-Ser-Ala-Phe-DPro]] ? Its Inverse agonist percent decrease from basal activity was −25

So, C[C@@H]1NC(=O)[C@H](CC(N)=O)NC(=O)[C@H](Cc2ccccc2)NC(=O)[C@H](Cc2ccccc2)NC(=O)[C@H](CCCNC(=N)N)NC(=O)[C@@H]2CCCN2C(=O)[C@H]2CCCN2C(=O)[C@H](Cc2ccccc2)NC1=O [MDE5–108-10c, c[Pro-Arg-Phe-Phe-Asn-Ala-Phe-DPro]] ? Its Inverse agonist percent decrease from basal activity was −25

---

Here the recorded Inverse agonist percent decrease from basal activity is given for each entry.
- Test System: D189S hMC4R (Homo sapiens, UniProt P32245, D189S)
- Protocol Text: cAMP AlphaScreen agonist / inverse agonist assay
- Assay type: cell-based
- Particulars: D189S hMC4R
Report the figure in % without appending any unit label.

Compound: C[C@@H]1NC(=O)[C@H](CC(=O)O)NC(=O)[C@H](Cc2ccccc2)NC(=O)[C@H](Cc2ccccc2)NC(=O)[C@H](CCCNC(=N)N)NC(=O)[C@@H]2CCCN2C(=O)[C@H]2CCCN2C(=O)[C@H](Cc2ccccc2)NC1=O [MDE3–119-4c, c[Pro-Arg-Phe-Phe-Asp-Ala-Phe-DPro]]
Result Value: −15

// next item, Inverse agonist percent decrease from basal activity requested
So, C[C@@H]1NC(=O)[C@@H](CN)NC(=O)[C@H](Cc2ccccc2)NC(=O)[C@H](Cc2ccccc2)NC(=O)[C@H](CCCNC(=N)N)NC(=O)[C@@H]2CCCN2C(=O)[C@H]2CCCN2C(=O)[C@H](Cc2ccccc2)NC1=O [MDE3–119-7c, c[Pro-Arg-Phe-Phe-DDap-Ala-Phe-DPro]] ? Its Inverse agonist percent decrease from basal activity was −30
